Value source: patent US20260078103A1

test system: SKBR3 cells express WT PI3Ka; assay: In vitro cell proliferation, SKBR3 cells (CellTiter-Glo); assay type: cell-based; details: Homo sapiens, SK-BR-3, 72 h, inhibition of proliferation
Overview of recorded EC50 for various compounds
reported endpoint: EC50

In [3]: df
Out[3]:
                                    compound  endpoint_value
 0  Cc1cc(C(C)Nc2ccccc2C(=O)O)c2cc(-c3ccc(C)nc3)n(C)c(=O)c2c1 (single isomer, unassigned) [Example 20]         > 15 µM
 1  CON1CCN(c2cc3c([C@@H](C)Nc4ccccc4C(=O)O)cc(C)cc3c(=O)n2C)CC1         > 15 µM
 2  Cc1cc(C(C)Nc2ccccc2C(=O)O)c2cc(N3Cc4cc(F)cc(F)c4C3)n(C)c(=O)c2c1 (stereo not shown) [Example 84]         > 15 µM
 3  Cc1cc([C@@H](C)Nc2ccccc2C(=O)O)c2cc(-c3cnc(C(F)(F)F)nc3)n(C)c(=O)c2c1         > 15 µM
 4  Cc1nc(N2CCN(c3cc4c([C@@H](C)Nc5ccccc5C(=O)O)cc(F)cc4c(=O)n3C)CC2)cs1      2 to 15 µM
 5  Cc1cc(C(C)Nc2ccccc2C(=O)O)c2cc(N3CCN(C)CC3)n(C)c(=O)c2c1 (stereo not shown) [Example 59]         > 15 µM
 6  C[C@@H](Nc1ccccc1C(=O)O)c1cc(F)cc2c(=O)n(C)c(-c3ccc(OC4CC4)nc3)cc12         > 15 µM
 7  COc1ncc(-c2cc3c([C@@H](C)Nc4ccccc4C(=O)O)cc(F)cc3c(=O)n2C)s1         > 15 µM
 8  Cc1cc(C(C)Nc2ccccc2C(=O)O)c2cc(N3CCN4CC(F)(F)C[C@@H]4C3)n(C)c(=O)c2c1 (stereo partly shown)         > 15 µM
 9  Cc1cc([C@@H](C)Nc2ccccc2C(=O)O)c2cc(-c3cnc(C(F)F)c(F)c3)n(C)c(=O)c2c1         > 15 µM
10  Cc1cc([C@@H](C)Nc2ccccc2C(=O)O)c2cc(N3CCN(c4cnn(C)n4)CC3)n(C)c(=O)c2c1      2 to 15 µM
11  Cc1cc([C@@H](C)Nc2ccccc2C(=O)O)c2cc(-c3cnc4c(c3)CCO4)n(C)c(=O)c2c1         > 15 µM
12  C[C@@H](Nc1ccccc1C(=O)O)c1cc(F)cc2c(=O)n(C)c(C34CC(c5ccc(F)cc5F)(C3)C4)cc12      2 to 15 µM
13  Cc1cc([C@@H](C)Nc2cccc(F)c2C(=O)O)c2cc(N3CCN(c4ccc(C)nc4)CC3)n(C)c(=O)c2c1      2 to 15 µM
14  Cc1cc(C(C)Nc2ccc(Cl)nc2C(=O)O)c2cc(C3=CCC(C)(C)CC3)n(C)c(=O)c2c1 (single isomer, unassigned)      2 to 15 µM
15  Cc1ncc(F)cc1-c1ncc(-c2cc3c([C@@H](C)Nc4ccccc4C(=O)O)cc(F)cc3c(=O)n2C)cc1F      2 to 15 µM
16  C[C@@H](Nc1ccccc1C(=O)O)c1cc(F)cc2c(=O)n(C)c(-c3cnc(C(F)F)s3)cc12         > 15 µM
17  Cc1cc(C(C)Nc2ccccc2C(=O)O)c2cc(-c3cc4ccc(F)cc4[nH]3)n(C)c(=O)c2c1 (stereo not shown)         > 15 µM
18  CCn1c(N2CCC(C)(C)CC2)cc2c(C(C)Nc3ccccc3C(=O)O)cc(C)cc2c1=O (stereo not shown)         > 15 µM
19  Cc1cc(C(C)Nc2ccccc2C(=O)O)c2cc(N3CC(C)(O)C3)n(C)c(=O)c2c1 (single isomer, unassigned)         > 15 µM
20  Cc1cc(C(C)Nc2ccccc2C(=O)O)c2cc(-c3cc4cc(F)ccc4[nH]3)n(C)c(=O)c2c1 (stereo not shown)         > 15 µM
21  Cc1cc([C@@H](C)Nc2ccccc2C(=O)O)c2cc(N3CC4CC3CN4CC(F)(F)F)n(C)c(=O)c2c1 (single isomer, unassigned)         > 15 µM
